PROTOCOL_SUMMARY: acute oral toxicity (LD50) to male mice
ASSAY_CONDITIONS: mouse, in vivo
ASSAY_ENDPOINT: LD50 (mg/kg)
# number only, unit mg/kg dropped from output

TEST_SMILES	LD50 (mg/kg)
CC(C)COC(=O)C(C(=O)OCC(C)C)=C1SC=CS1	4700
CCOC(=O)C(C(=O)OC(C)C)=C1SC=CS1	2700
COC(=O)C(C(=O)OCC(C)C)=C1SC=CS1	5800

Consider now this further compound.
The reported value for `CCOC(=O)C(C(=O)OCC)=C1SC=CS1` in terms of LD50 is 4900
